Hey, just so you know, these numbers are from patent US11427548B2.

- tested target: Androgen Receptor (Homo sapiens, UniProt P10275)
- Construct: endogenous in cells; host or cells: VCaP cells
- Sequence (P10275 1-920): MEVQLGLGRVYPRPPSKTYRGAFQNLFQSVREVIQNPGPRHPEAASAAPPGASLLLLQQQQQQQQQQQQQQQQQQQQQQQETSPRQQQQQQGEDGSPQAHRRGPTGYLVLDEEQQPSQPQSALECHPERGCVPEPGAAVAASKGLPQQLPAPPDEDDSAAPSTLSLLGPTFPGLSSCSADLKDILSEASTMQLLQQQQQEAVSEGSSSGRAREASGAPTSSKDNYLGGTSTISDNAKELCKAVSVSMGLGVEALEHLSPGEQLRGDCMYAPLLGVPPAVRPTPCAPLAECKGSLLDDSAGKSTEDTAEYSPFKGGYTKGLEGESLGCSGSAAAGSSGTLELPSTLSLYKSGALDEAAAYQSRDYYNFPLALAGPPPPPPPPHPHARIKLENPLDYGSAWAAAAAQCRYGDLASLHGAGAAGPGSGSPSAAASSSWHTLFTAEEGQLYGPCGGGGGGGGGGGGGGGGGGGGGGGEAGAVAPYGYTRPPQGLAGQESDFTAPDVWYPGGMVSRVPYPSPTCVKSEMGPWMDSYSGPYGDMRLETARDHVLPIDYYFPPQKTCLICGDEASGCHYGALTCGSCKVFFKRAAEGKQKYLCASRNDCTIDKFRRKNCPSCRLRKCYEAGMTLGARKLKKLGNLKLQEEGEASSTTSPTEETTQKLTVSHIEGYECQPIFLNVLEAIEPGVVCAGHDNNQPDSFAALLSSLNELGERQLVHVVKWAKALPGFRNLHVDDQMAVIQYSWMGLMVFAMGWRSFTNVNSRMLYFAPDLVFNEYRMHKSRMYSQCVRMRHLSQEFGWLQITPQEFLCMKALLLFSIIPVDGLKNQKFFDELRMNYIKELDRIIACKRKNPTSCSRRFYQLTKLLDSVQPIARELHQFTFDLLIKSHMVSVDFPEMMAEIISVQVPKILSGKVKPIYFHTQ
- test name: Androgen Receptor ELISA assay (PathScan AR ELISA) in VCaP cells: AR degradation, Dmax and DC50
- Type: cell-based
- condition parameters: VCaP, VCaP cells; Table 35; read-out: VCaP Dmax (%)
Recorded Dmax values for a group of compounds are listed next.

entry smiles	Dmax
Cc1ncsc1-c1ccc(CNC(=O)[C@@H]2C[C@@H](O)CN2C(=O)[C@@H](NC(=O)CS(=O)(=O)CCOc2ccc(-c3ccc(C(=O)N[C@H]4C(C)(C)[C@H](Oc5ccc(C#N)c(Cl)c5)C4(C)C)cc3)cc2)C(C)(C)C)cc1	> 71%
CC(C)(C)[C@H](NC(=O)COCCCCCNc1ccc(C(=O)N[C@H]2C(C)(C)[C@H](Oc3ccc(C#N)c(Cl)c3)C2(C)C)cn1)C(=O)N1C[C@H](O)C[C@H]1C(=O)NCc1ccc(C#N)cc1	51 to 70%
CC(C)c1ncsc1-c1ccc(CNC(=O)[C@@H]2C[C@@H](O)CN2C(=O)[C@@H](NC(=O)COCCCCCNc2ccc(C(=O)N[C@H]3C(C)(C)[C@H](Oc4ccc(C#N)c(Cl)c4)C3(C)C)cc2)C(C)(C)C)cc1	> 71%

Proceeding to the next compound to report its Dmax.
Req: Name the recorded Dmax of the item Cc1ncsc1-c1ccc([C@H](C)NC(=O)[C@@H]2C[C@@H](O)CN2C(=O)[C@@H](NC(=O)COCCCCCNc2ccc(C(=O)N[C@H]3C[C@H](Oc4ccc(C#N)c(Cl)c4)C3)cc2)C(C)(C)C)cc1 in your answer.
Resp: 51 to 70%
